This listing pairs molecules with measured melting point.

Completed entries (count: 3):
| Molecule | melting point |
| --- | --- |
| O=C1NCCC(c2cccc(C(F)(F)F)c2)C1C(=O)Nc1ccccc1C(F)(F)F (stereo not shown) [Compound 10] | 292 to 295 °C |
| O=C1NCCC(c2ccc(C(F)(F)F)cc2)C1C(=O)Nc1cccc(F)c1F (stereo not shown) [Compound 11] | 180 to 182 °C |
| O=C1NCCC(c2cccc(C(F)F)c2)C1C(=O)Nc1cccc(F)c1F (stereo not shown) [Compound 49] | 134 to 137 °C |

Proceed to the following item.
For O=C1NCCC(c2cccc(Cl)c2)C1C(=O)Nc1cccc(F)c1F (stereo not shown) [Compound 36] the molecule record lists melting point as 100 to 102 °C

Source of measurements: patent US9944602B2
